- System: velvetleaf
- Protocol: Test A pre-/postemergence greenhouse test
- Format: in vivo, Abutilon theophrasti
- Condition Context: Postemergence, 125 g ai/ha; 0 to 100 scale where 0 is no effect and 100 is complete control
Each item that follows carries a reported Plant response rating, Velvetleaf.
Readout Label: Plant response rating, Velvetleaf

- C#CCOc1c(CS(=O)(=O)c2cccc[n+]2[O-])c(C(F)(F)F)nn1C: 40
- O=S(=O)(Cc1c(C(F)(F)F)nn(CC(F)(F)F)c1Cl)c1cccc[n+]1[O-]: 0
- CCn1nc(C(F)(F)F)c(C(C)S(=O)(=O)c2cccc[n+]2[O-])c1OCC(F)(F)F (stereo not shown): 50
- CCc1cc[n+]([O-])c([S+]([O-])Cc2c(C(F)(F)F)nn(C)c2OC(F)F)c1 (stereo not shown): 70
